Target: Recombinant ROCK2 (amino acids 5-554) (Homo sapiens, UniProt O75116)
Construct: ROCK2 (amino acids 5-554)
Sequence (O75116 5-554): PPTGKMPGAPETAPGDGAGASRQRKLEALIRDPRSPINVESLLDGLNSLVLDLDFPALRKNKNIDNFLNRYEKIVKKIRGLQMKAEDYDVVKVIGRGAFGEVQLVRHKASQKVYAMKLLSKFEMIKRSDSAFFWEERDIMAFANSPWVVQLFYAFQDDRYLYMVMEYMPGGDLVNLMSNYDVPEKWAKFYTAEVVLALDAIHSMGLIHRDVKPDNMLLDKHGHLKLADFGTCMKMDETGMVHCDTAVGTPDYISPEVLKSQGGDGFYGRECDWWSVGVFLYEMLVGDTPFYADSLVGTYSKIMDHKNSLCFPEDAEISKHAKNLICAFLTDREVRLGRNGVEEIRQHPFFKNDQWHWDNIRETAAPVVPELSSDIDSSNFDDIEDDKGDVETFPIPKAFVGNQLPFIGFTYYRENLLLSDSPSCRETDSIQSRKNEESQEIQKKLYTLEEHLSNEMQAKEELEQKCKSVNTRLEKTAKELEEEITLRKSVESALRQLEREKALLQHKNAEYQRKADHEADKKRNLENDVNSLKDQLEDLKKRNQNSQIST
Assay: ROCK inhibition assay, LANCE Ultra TR-FRET (ROCK2)
Settings: 1 mM of ATP
endpoint name: IC50

>>> observed_result("CN(C)CCn1cc(C(=O)C2COc3ccc(Cl)cc3C2)c2ccc(-c3c[nH]nc3Cl)nc21 (stereo not shown) [Compound 1-9]")
"21 to 200 nM"

# per-item lookup of IC50; items listed below
1. CN1CCCC1Cn1cc(C(=O)C2COc3ccc(Cl)cc3C2)c2ccc(-c3cn[nH]c3Cl)cc21 (stereo not shown) [Compound 1-20]
2. C[C@@H](Cn1cc(C(=O)C2COc3ccc(Cl)cc3C2)c2ccc(-c3cn[nH]c3Cl)cc21)N(C)C (stereo partly shown) [Compound 2-12]
3. COc1[nH]ncc1-c1ccc2c(C(=O)C3COc4ccc(Cl)cc4C3)cn(CCN(C)C)c2c1 (stereo not shown) [Compound 5-28]
4. COc1ccc2c(c1)CC(C(=O)c1nn(CCN(C)C)c3cc(-c4c[nH]nc4OC)ccc13)CO2 (stereo not shown) [Compound 5-49]
5. CN(C)CCn1cc(C(=O)C2COc3ccc(Cl)cc3C2)c2cnc(-c3cn[nH]c3F)nc21 (stereo not shown) [Compound 1-34]
6. COc1ccc2c(c1)CC(C(=O)c1cn(CCN(C)C)c3nc(-c4c[nH]nc4Cl)ccc13)CO2 (stereo not shown) [Compound 1-13]

1. > 501 nM
2. < 20 nM
3. < 20 nM
4. < 20 nM
5. 201 to 500 nM
6. < 20 nM

###

Provide the reported pIC50 of each item.
Target: Recombinant ROCK2 (amino acids 5-554) (Homo sapiens)
Construct: ROCK2 (amino acids 5-554)
Assay: ROCK inhibition assay, LANCE Ultra TR-FRET (ROCK2)
Conditions: 1 mM of ATP
pIC50: −log10 of the molar value.

Below, each entry is followed by its recorded pIC50 result.
>>> observed_result("CCN(C)CCn1cc(C(=O)C2COc3ccc(Cl)cc3C2)c2ccc(-c3cn[nH]c3Cl)cc21 (centres unmarked)")
"6.70 to 7.68"
>>> observed_result("COc1n[nH]cc1-c1ccc2c(C(=O)C3COc4ccc(Cl)cc4C3)nn(CCN(C)C)c2c1 (centres unmarked)")
"> 7.70"
>>> observed_result("NC1(Cn2cc(C(=O)C3COc4ccc(F)cc4C3)c3ccc(-c4cn[nH]c4Cl)cc32)CC1 (centres unmarked)")
"> 7.70"
>>> observed_result("CCN(CCn1cc(C(=O)[C@@H]2COc3ccc(OC)cc3C2)c2ccc(-c3c[nH]nc3Cl)cc21)CC(F)F")
"> 7.70"
>>> observed_result("CCN(C)CCn1cc(C(=O)C2COc3ccc(OC)cc3C2)c2ccc(-c3cn[nH]c3Cl)cc21 (centres unmarked)")
"> 7.70"
>>> observed_result("NCCn1cc(C(=O)C2COc3ccc(F)cc3C2)c2cnc(-c3c[nH]nc3Cl)cc21 (centres unmarked)")
"> 7.70"

# per-item lookup of pIC50; items listed below
1. CN(C)CCn1cc(C(=O)C2COc3ccc(Cl)cc3C2)c2ccc(-c3cn[nH]c3F)nc21 (centres unmarked)
2. CN(C)CCn1cc(C(=O)C2COc3ccccc3O2)c2ccc(-c3c[nH]nc3Cl)cc21 (centres unmarked)
3. CCN(CC)CCn1cc(C(=O)[C@@H]2COc3ccc(Cl)cc3C2)c2ccc(-c3cn[nH]c3OC)cc21
4. COc1ccc2c(c1)C[C@@H](C(=O)c1cn(CCN(C)C)c3cc(-c4c[nH]nc4Cl)ccc13)CO2
5. Cc1n[nH]cc1-c1ccc2c(C(=O)C3COc4ccc(Cl)cc4C3)cn(CCN(C)C)c2c1 (centres unmarked)

["< 6.30", "6.30 to 6.70", "> 7.70", "> 7.70", "6.30 to 6.70"]
